Please respond with reported growth percent at 10 µM for every item in the list.
tested on: A498; assay: Cytotoxicity against human A498 cells at 10 uM after 48 hrs by MTT assay; assay type: functional; settings: A498, 48 h
Numbers only, in %.

Reference set, count: 4
[[record]]
smiles_text = "CN(C)CC(=O)Nc1ccc2c(c1)C(=O)c1cc(NC(=O)CN(C)C)ccc1C2=O"
unit_info = "%"
result_value = -6.39

[[record]]
smiles_text = "CC(=O)Nc1ccc2c(c1)C(=O)c1cc(NC(C)=O)ccc1C2=O"
unit_info = "%"
result_value = 116

[[record]]
smiles_text = "O=C(CCN1CCCC1)Nc1ccc2c(c1)C(=O)c1cc(NC(=O)CCN3CCCC3)ccc1C2=O"
unit_info = "%"
result_value = -0.91

[[record]]
smiles_text = "CCN(CC)CCC(=O)Nc1ccc2c(c1)C(=O)c1cc(NC(=O)CCN(CC)CC)ccc1C2=O"
unit_info = "%"
result_value = -38.8


Record O=C1c2ccc(NC(=O)C3CC3)cc2C(=O)c2cc(NC(=O)C3CC3)ccc21 : what is its growth percent at 10 µM with A498?
92.3

###

tested on: OVCAR-8; experiment: Cytotoxicity against human OVCAR8 cells at 10 uM after 48 hrs by MTT assay; format: functional; conditions: OVCAR-8, 48 h
test-readout: growth percent at 10 µM (%)
One number for each entry, in %.

For each of the molecules below, note its growth percent at 10 µM.
1. O=C(CCN1CCCC1)Nc1ccc2c(c1)C(=O)c1cc(NC(=O)CCN3CCCC3)ccc1C2=O
2. CCN(CC)CCC(=O)Nc1ccc2c(c1)C(=O)c1cc(NC(=O)CCN(CC)CC)ccc1C2=O
3. CN(C)CC(=O)Nc1ccc2c(c1)C(=O)c1cc(NC(=O)CN(C)C)ccc1C2=O
4. CC(=O)Nc1ccc2c(c1)C(=O)c1cc(NC(C)=O)ccc1C2=O
5. O=C1c2ccc(NC(=O)C3CC3)cc2C(=O)c2cc(NC(=O)C3CC3)ccc21

1: 19.6; 2: 4.3; 3: 32.3; 4: 99.8; 5: 94.3

###

molecular target: Telomerase reverse transcriptase (Homo sapiens); assay: Effect on human TERT expressed in H1299 cells at 1 uM after 24 hrs by SEAP assay relative to control
Sequence (O14746 whole entry): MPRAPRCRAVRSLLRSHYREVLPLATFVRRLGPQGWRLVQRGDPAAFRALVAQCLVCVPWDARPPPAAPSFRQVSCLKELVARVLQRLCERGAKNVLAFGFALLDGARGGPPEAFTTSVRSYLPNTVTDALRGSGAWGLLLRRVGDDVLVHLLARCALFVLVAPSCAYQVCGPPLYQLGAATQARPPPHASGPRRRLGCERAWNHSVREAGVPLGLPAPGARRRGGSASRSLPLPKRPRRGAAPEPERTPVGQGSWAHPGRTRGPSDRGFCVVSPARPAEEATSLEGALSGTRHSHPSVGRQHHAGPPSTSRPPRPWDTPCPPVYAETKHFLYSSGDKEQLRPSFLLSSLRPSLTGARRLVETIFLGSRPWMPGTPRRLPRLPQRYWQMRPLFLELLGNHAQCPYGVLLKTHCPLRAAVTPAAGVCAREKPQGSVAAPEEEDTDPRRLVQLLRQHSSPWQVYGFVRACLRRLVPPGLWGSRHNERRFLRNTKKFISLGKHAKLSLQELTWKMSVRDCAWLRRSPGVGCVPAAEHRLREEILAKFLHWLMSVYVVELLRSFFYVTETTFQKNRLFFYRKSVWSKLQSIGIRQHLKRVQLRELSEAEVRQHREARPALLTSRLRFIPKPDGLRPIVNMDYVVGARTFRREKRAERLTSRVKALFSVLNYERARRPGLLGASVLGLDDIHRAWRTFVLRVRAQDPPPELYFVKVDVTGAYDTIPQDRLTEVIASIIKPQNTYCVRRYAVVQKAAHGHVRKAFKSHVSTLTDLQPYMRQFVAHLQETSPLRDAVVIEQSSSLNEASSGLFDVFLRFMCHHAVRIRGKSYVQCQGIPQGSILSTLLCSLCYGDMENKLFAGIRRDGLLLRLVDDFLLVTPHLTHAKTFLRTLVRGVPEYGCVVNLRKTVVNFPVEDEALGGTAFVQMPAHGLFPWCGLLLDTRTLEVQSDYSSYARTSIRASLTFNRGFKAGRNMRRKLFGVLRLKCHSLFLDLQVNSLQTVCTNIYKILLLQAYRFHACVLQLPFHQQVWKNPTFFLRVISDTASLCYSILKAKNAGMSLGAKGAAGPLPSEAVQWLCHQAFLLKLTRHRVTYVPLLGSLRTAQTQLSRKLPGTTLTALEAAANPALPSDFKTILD
Field: residual activity. Provide a value for each of the compounds that follow.
Numbers only, in %.

Some solved entries appear below for comparison.
[[record]]
smiles_text = "O=C(Cc1ccccc1)Nc1ccc2c(c1)C(=O)c1cc(NC(=O)Cc3ccccc3)ccc1C2=O"
result_value = 97

[[record]]
smiles_text = "O=C1c2ccc([N+](=O)[O-])cc2C(=O)c2cc([N+](=O)[O-])ccc21"
result_value = 87

[[record]]
smiles_text = "CCCC(=O)Nc1ccc2c(c1)C(=O)c1cc(NC(=O)CCC)ccc1C2=O"
result_value = 90

[[record]]
smiles_text = "CN(C)CC(=O)Nc1ccc2c(c1)C(=O)c1cc(NC(=O)CN(C)C)ccc1C2=O"
result_value = 87


Attention now turns to another entry.
Item under review: CC(=O)Nc1ccc2c(c1)C(=O)c1cc(NC(C)=O)ccc1C2=O . Reported residual activity?
97

###

test system: K562; assay: Cytotoxicity against human K562 cells at 10 uM after 48 hrs by MTT assay; assay type: functional; conditions: K562, 48 h
test-readout: growth percent at 10 µM (%)
Numbers only, in %.

List the reported growth percent at 10 µM of each compound below.
1. O=C(CCN1CCCC1)Nc1ccc2c(c1)C(=O)c1cc(NC(=O)CCN3CCCC3)ccc1C2=O
2. CC(=O)Nc1ccc2c(c1)C(=O)c1cc(NC(C)=O)ccc1C2=O

1: 6.4; 2: 98.5

Would you mind listing growth percent at 10 µM for each of the following compounds?
1. CN(C)CC(=O)Nc1ccc2c(c1)C(=O)c1cc(NC(=O)CN(C)C)ccc1C2=O
2. O=C1c2ccc(NC(=O)C3CC3)cc2C(=O)c2cc(NC(=O)C3CC3)ccc21
3. CCN(CC)CCC(=O)Nc1ccc2c(c1)C(=O)c1cc(NC(=O)CCN(CC)CC)ccc1C2=O

34.9
91.6
8.1

###

biological target: UniProtKB O14746; experiment: Effect on human TERT expressed in H1299 cells at 10 uM after 24 hrs by SEAP assay relative to control
Exam item: assign label 1 to entries whose residual activity is below 40% and label 0 to entries at or above 40%. Note that a value of exactly 40% receives label 0.

A selection of reference data follows.
[[record]]
smiles_text = "CCCNCCC(=O)Nc1ccc2c(c1)C(=O)c1cc(NC(=O)CCNCCC)ccc1C2=O"
assigned_label = "label 1"

[[record]]
smiles_text = "CCCNCC(=O)Nc1ccc2c(c1)C(=O)c1cc(NC(=O)CNCCC)ccc1C2=O"
assigned_label = "label 0"

[[record]]
smiles_text = "CN1CCN(CC(=O)Nc2ccc3c(c2)C(=O)c2cc(NC(=O)CN4CCN(C)CC4)ccc2C3=O)CC1"
assigned_label = "label 0"

[[record]]
smiles_text = "O=C(CCc1ccccc1)Nc1ccc2c(c1)C(=O)c1cc(NC(=O)CCc3ccccc3)ccc1C2=O"
assigned_label = "label 0"


residual activity strictly < 40% for this compound? CCN(CC)CCC(=O)Nc1ccc2c(c1)C(=O)c1cc(NC(=O)CCN(CC)CC)ccc1C2=O
label 1

Is residual activity of O=C1c2ccc([N+](=O)[O-])cc2C(=O)c2cc([N+](=O)[O-])ccc21 strictly below 40%?
label 0

residual activity strictly < 40% for this compound? CN(C)CCC(=O)Nc1ccc2c(c1)C(=O)c1cc(NC(=O)CCN(C)C)ccc1C2=O
label 1

# strict comparison: is reported residual activity < 40%? input = O=C(CCCCl)Nc1ccc2c(c1)C(=O)c1cc(NC(=O)CCCCl)ccc1C2=O
label 0

###

assay: Cytotoxicity against human TERT immortalized BJ1 cells at 10 uM after 48 hrs by MTT assay relative to control; type: cell-based, BJ
Heads up, the class ranges for viability at 48 h, 10 µM are I: < 50%; II: ≥ 50% and < 70%; III: ≥ 70%

These solved cases illustrate the format of a correct answer.
[[record]]
smiles_text = "O=C(CN1CCCC1)Nc1ccc2c(c1)C(=O)c1cc(NC(=O)CN3CCCC3)ccc1C2=O"
assigned_label = "II"

[[record]]
smiles_text = "O=C(CCl)Nc1ccc2c(c1)C(=O)c1cc(NC(=O)CCl)ccc1C2=O"
assigned_label = "III"

[[record]]
smiles_text = "O=C(Nc1ccc2c(c1)C(=O)c1cc(NC(=O)c3ccccc3)ccc1C2=O)c1ccccc1"
assigned_label = "III"


The entry to classify is CCN(CC)CCC(=O)Nc1ccc2c(c1)C(=O)c1cc(NC(=O)CCN(CC)CC)ccc1C2=O ; which class holds it?
II

Class (by measured viability at 48 h, 10 µM) for CCNCCC(=O)Nc1ccc2c(c1)C(=O)c1cc(NC(=O)CCNCC)ccc1C2=O
III

Class for O=C(CCc1ccccc1)Nc1ccc2c(c1)C(=O)c1cc(NC(=O)CCc3ccccc3)ccc1C2=O ?
I

Consider CCCNCCC(=O)Nc1ccc2c(c1)C(=O)c1cc(NC(=O)CCNCCC)ccc1C2=O . To which viability at 48 h, 10 µM class does it belong?
II

Dear colleague, I would appreciate it if you could identify the bin for O=C1c2ccc(NC(=O)C3CC3)cc2C(=O)c2cc(NC(=O)C3CC3)ccc21 and reply at your convenience.
I

Sort into band: CN(C)CCC(=O)Nc1ccc2c(c1)C(=O)c1cc(NC(=O)CCN(C)C)ccc1C2=O
I

Assign a category based on measured viability at 48 h, 10 µM for CC(C)NCC(=O)Nc1ccc2c(c1)C(=O)c1cc(NC(=O)CNC(C)C)ccc1C2=O and give only the class name.
I

###

tested on: COLO 205; assay: Cytotoxicity against human COLO205 cells at 10 uM after 48 hrs by MTT assay; type: functional; details: COLO 205, 48 h, values are per cent of control
test-readout: growth, % of control at 10 µM (%)
Give bare numbers, in %.

[[record]]
smiles_text = "O=C(CCN1CCCC1)Nc1ccc2c(c1)C(=O)c1cc(NC(=O)CCN3CCCC3)ccc1C2=O"
test_readout = "growth, % of control at 10 µM"
unit_info = "%"
result_value = -29

[[record]]
smiles_text = "CCN(CC)CCC(=O)Nc1ccc2c(c1)C(=O)c1cc(NC(=O)CCN(CC)CC)ccc1C2=O"
test_readout = "growth, % of control at 10 µM"
unit_info = "%"
result_value = -49.7

[[record]]
smiles_text = "O=C1c2ccc(NC(=O)C3CC3)cc2C(=O)c2cc(NC(=O)C3CC3)ccc21"
test_readout = "growth, % of control at 10 µM"
unit_info = "%"
result_value = 91.9

[[record]]
smiles_text = "CC(=O)Nc1ccc2c(c1)C(=O)c1cc(NC(C)=O)ccc1C2=O"
test_readout = "growth, % of control at 10 µM"
unit_info = "%"
result_value = 120


Consider the additional compound presented here.
Given the entry CN(C)CC(=O)Nc1ccc2c(c1)C(=O)c1cc(NC(=O)CN(C)C)ccc1C2=O , what growth, % of control at 10 µM was observed with COLO 205?
-73.6
